settings: in isobutanol, 313.15 K
recorded metric: solubility (mole fraction)
Give bare numbers.

Q: Consider the molecule shown here: N[C@@H](CC(=O)N1CCn2c(nnc2C(F)(F)F)C1)Cc1cc(F)c(F)cc1F What is its recorded solubility (mole fraction)?
Ans: 0.0301

---

conditions: in ethyl acetate, 308.15 K
recorded metric: solubility (mole fraction)
Answers are plain numbers.

Q: Consider the compound shown here: N[C@@H](CC(=O)N1CCn2c(nnc2C(F)(F)F)C1)Cc1cc(F)c(F)cc1F What is its recorded solubility (mole fraction)?
Ans: 0.0286

---

conditions: in methyl acetate, 298.15 K
recorded metric: solubility (mole fraction)
Give bare numbers.

Q: Consider the compound shown here: N[C@@H](CC(=O)N1CCn2c(nnc2C(F)(F)F)C1)Cc1cc(F)c(F)cc1F What is its recorded solubility (mole fraction)?
Ans: 0.0728
